- PROTOCOL: in vivo
- EXPERIMENTAL_CONDITIONS: male, Sprague-Dawley, rat, plasma, po, 10 mg/kg
METRIC_NAME: concentration at 1 hr (ng/mL)
Express the result in ng/mL but write the number alone.

Ask: What concentration at 1 hr value was documented for this compound, CCCCCCCCCCCCCCCC(=O)NCCO [PEA, palmitoylethanolamide] ?
Reply: 2.34

====

Provide the reported half-life at 1 μM of each item.
- PROTOCOL: in vitro
- EXPERIMENTAL_CONDITIONS: both, human, microsomes, Calculated half-life (in parentheses)
Kindly answer with a numeric value in h, unit omitted.

Ask: I am curious: what half-life at 1 μM value has been reported for CC/C=C\C/C=C\C/C=C\C/C=C\C/C=C\CCCC(=O)OCCNC(=O)CCCCCCCCCCCCCCC [Compound I-5] ?
Reply: 1.5

Ask: Another compound to look at: CCCCC/C=C\C/C=C\CCCCCCCC(=O)OCCNC(=O)CCCCCCCCCCCCCCC [Compound I-6]
Reply: 1.62

Ask: Continue with CCCCCCCCCCCCCCCC(=O)NCCOC(=O)CCC(=O)OCC(COC(=O)CCCCCCC)OC(=O)CCCCCCC (stereo not drawn) [Compound I-3, PEA-Succinate-Glycerol-Di-Caprylic]
Reply: 1.15
